biological target: Mannose-6-phosphate isomerase (Homo sapiens); assay: MPI inhibition at elevated mannose 6-phosphate – biochemical, fluorescence intensity, high mannose 6-phosphate, primary screen (AID 1220); details: recombinant PMI enzyme, coupled fluorescence intensity; at 20 µM; hits give high values
Screen size: about 190,000 compounds; about 1,300 (0.68%) were called active. Only a selection was taken, and actives are over-represented in it overall.
Can you tell me inhibition for the items I'm about to list?
Answers are plain numbers, in %.

Return reported inhibition values for all items listed beneath this line.
1. O=C(O)c1cc(Cl)c(Cl)cc1C(=O)Nc1cccc2ncccc12
2. COCCNC(=O)Cn1cc2c(n1)CCC(C)C2 (centres undefined)
3. O=C(CNc1ccccc1)c1ccc([N+](=O)[O-])cc1
4. NC(=O)C1=C[C@@H](c2ccc(C(F)(F)F)cc2)C[C@@H](OCCCCO)O1
5. O=C(CNc1ccccc1)NNC1=NCCC1

### Response
1. 54.8
2. 4.1
3. -90.7
4. 57.4
5. 14.8

Give measured inhibition for every item shown.
1. O=C(NC(=S)Nc1cccc2ncccc12)c1cccs1
2. Cc1cc2c(cc(C(=O)OCC(=O)NCc3ccco3)n2C)s1
3. CCNC(=S)N/N=C/c1ccccc1[N+](=O)[O-]
4. Cc1cccc(NCC(=O)N/N=C\c2cccc(Oc3ccccc3)c2)c1
5. C#CCNC(=O)C1=C[C@@H](c2ccc(C(F)(F)F)cc2)C[C@@H](OCCCCO)O1
6. Cc1ccc(NCC(=O)N/N=C/c2cccc(Oc3ccccc3)c2)cc1

### Response
[67.1, -6.2, -1.5, 12.6, 38.5, 10.5]

---

biological target: Mannose-6-phosphate isomerase (Homo sapiens); assay: MPI inhibition at elevated mannose 6-phosphate – biochemical, fluorescence intensity, high mannose 6-phosphate, primary screen (AID 1220); conditions: recombinant PMI enzyme, coupled fluorescence intensity; at 20 µM; hits give high values
The whole screen tested about 190,000 compounds, of which about 1,300 (0.68%) were called active. The entries come from a sample that favours actives as a whole.
Measured parameter: inhibition (%)
Give bare numbers, in %.

Some compounds with recorded inhibition:
{"Compound": "COc1cc(C2CC(=O)NC3=C2C(=O)CC(C)(C)C3)cc(OC)c1O (stereo not drawn)", "inhibition, %": 54.4}
{"Compound": "CC1CCN(C(C(=O)NC2CCCCC2)c2cc3c(cc2[N+](=O)[O-])OCO3)CC1 (stereo not drawn)", "inhibition, %": 61.1}

# evaluate next
### Prompt Look at this compound and give its reported inhibition. O=C(NC1CCCCC1)C(c1cc2c(cc1[N+](=O)[O-])OCO2)N1CCCCC1 (stereo not drawn)
### Response 46.3

---

molecular target: Mannose-6-phosphate isomerase (Homo sapiens) (UniProt P34949); assay: MPI inhibition at elevated mannose 6-phosphate – biochemical, fluorescence intensity, high mannose 6-phosphate, primary screen (AID 1220); details: recombinant PMI enzyme, coupled fluorescence intensity; at 20 µM
Sequence (P34949 whole entry, looked up): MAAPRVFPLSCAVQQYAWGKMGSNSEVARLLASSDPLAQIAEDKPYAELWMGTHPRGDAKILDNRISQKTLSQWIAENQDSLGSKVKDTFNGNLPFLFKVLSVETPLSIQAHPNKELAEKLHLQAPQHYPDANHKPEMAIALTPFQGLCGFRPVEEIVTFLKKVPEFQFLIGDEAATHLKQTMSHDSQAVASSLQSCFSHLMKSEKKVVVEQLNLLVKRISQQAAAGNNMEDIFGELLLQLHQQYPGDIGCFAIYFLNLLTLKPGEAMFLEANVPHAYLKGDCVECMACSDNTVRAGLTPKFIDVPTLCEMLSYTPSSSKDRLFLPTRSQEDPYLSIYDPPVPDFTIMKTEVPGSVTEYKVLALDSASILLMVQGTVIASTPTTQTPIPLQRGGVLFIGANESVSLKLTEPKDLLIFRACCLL
The whole screen tested about 190,000 compounds, of which about 1,300 (0.68%) were called active. No stated cut-off is given here; in the data, active means inhibition above about 50%; inactive means the rest. The full list was thinned out, with actives kept by preference.
The categories you may choose from are active, inactive

Please review the entries below; each comes with its answer.
{"Compound": "CCN(CC)P(=O)(Nc1ccccc1Br)c1ccc(N(C)C)cc1NC(=O)c1ccco1 (configuration not stated)", "Class label": "inactive"}
{"Compound": "COc1ccccc1NC(=O)c1ccc(-c2ccc(Br)cc2)o1", "Class label": "inactive"}
{"Compound": "Cc1ccc(S(=O)(=O)c2nc(-c3ccco3)oc2SCC(=O)NCC2CCCO2)cc1 (configuration not stated)", "Class label": "inactive"}
{"Compound": "Cc1nn(C)c(C)c1N=Cc1c(O)ccc2ccccc12", "Class label": "active"}

Next item in the queue.
### Prompt Each compound tested received a call. Report the one for "c1ccc(OCCN2CCN(Cc3nc(-c4ccc5c(c4)OCO5)no3)CC2)cc1" .
### Response inactive
